Molecular target: Potassium channel protein (Rattus norvegicus) (UniProt Q6I9B6)
Sequence (whole entry): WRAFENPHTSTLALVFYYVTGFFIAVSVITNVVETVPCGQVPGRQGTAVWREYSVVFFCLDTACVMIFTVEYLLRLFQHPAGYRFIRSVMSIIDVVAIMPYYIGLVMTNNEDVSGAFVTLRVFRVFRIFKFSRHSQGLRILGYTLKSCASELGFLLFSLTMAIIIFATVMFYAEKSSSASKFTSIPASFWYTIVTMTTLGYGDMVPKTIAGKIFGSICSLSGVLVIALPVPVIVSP
Assay: Activation of potassium channel in Rattus norvegicus (rat) aortic rings assessed as inhibition of phenylepinephrine-induced contractile response relative to control
Details: Aorta
Decision: Emax compared against 60%; not below it gives criterion met, below it gives criterion not met.

• CC1CC(=O)C2=C(C1)NC1=C(C(=O)CC(C)C1)C2c1c(C(F)(F)F)ccc(Cl)c1F (stereo unspecified) = criterion not met
• CC1CC(=O)C2=C(C1)NC1=C(C(=O)CC(C)C1)C2c1ccc(C(F)(F)F)cc1F (stereo unspecified) = criterion not met
• CC1CC(=O)C2=C(C1)NC1=C(C(=O)CC(C)C1)C2c1ccc(F)c(C(F)(F)F)c1 (stereo unspecified) = criterion not met
• CC(N/C(=N\C#N)Nc1ccncc1)C(C)(C)C (stereo unspecified) = criterion met
• CC1CC(=O)C2=C(C1)NC1=C(C(=O)CC(C)C1)C2c1cccc(C(F)(F)F)c1Cl (stereo unspecified) = criterion met
